The values you see were collected from paper PMC11277489.

Measured GI50, listed per entry.
- Test system: CAKI-1
- assay: NCI60 five-dose screen, Renal Cancer
- Format: cell-based
- condition parameters: Homo sapiens; CAKI-1, Renal Cancer; five-dose screen; read-out: GI50
Number only, in nM; omit the unit.

See these solved cases before continuing.
CC[C@]12C=CCN3CC[C@@]4(c5ccc(OC)cc5N(C)[C@H]4[C@@](O)(C(=O)OC)[C@@H]1OC(=O)CCCN1CCN(Cc4ccc(C(F)(F)F)cc4)CC1)[C@@H]32 [Compound 23] ... 1480
CCC12C=CCN3CCC4(c5cc(NC(=O)CN6CCN(c7ccc(C(F)(F)F)cc7)CC6)c(OC)cc5N(C)C4C(O)(C(=O)OC)C1OC(C)=O)C32 (centres unmarked) [Compound 17] ... 2630
CC[C@]12C=CCN3CC[C@@]4(c5ccc(OC)cc5N(C)[C@H]4[C@@](O)(C(=O)OC)[C@@H]1OC(=O)CCCN1CCN(c4ccc(C(F)(F)F)cc4)CC1)[C@@H]32 [Compound 22] ... 2240
CC[C@]12C=CCN3CC[C@@]4(c5ccc(OC)cc5N(C)[C@H]4[C@@](O)(C(=O)OC)[C@@H]1OC(=O)CCC(=O)N1CCN(Cc4ccc(C(F)(F)F)cc4)CC1)[C@@H]32 [Compound 29] ... 8710

Next item in the queue.
Enquiry: Find GI50 for CCC12C=CCN3CCC4(c5cc(NC(=O)CN6CCN(C(c7ccc(F)cc7)c7ccc(F)cc7)CC6)c(OC)cc5N(C)C4C(O)(C(=O)OC)C1OC(C)=O)C32 (centres unmarked) [Compound 20] on CAKI-1 and write it down.
Return: 3160

###

- Tested on: HCT-15
- assay: NCI60 one-dose screen (10 μM), Colon Cancer
- Format: cell-based
- condition parameters: Homo sapiens; 10 μM; HCT-15, Colon Cancer; read-out: Growth percent rate
property: activity at 10 µM
Please answer in the form of a number followed by its unit of measurement.

See these solved cases before continuing.
CC[C@]12C=CCN3CC[C@@]4(c5ccc(OC)cc5N(C)[C@H]4[C@@](O)(C(=O)OC)[C@@H]1OC(=O)CCC(=O)N1CCN(Cc4ccc(C(F)(F)F)cc4)CC1)[C@@H]32 ... 15%
CCC12C=CCN3CCC4(c5ccc(OC)cc5N(C)C4C(O)(C(=O)OC)C1OC(=O)CCCBr)C32 (centres unmarked) ... 96.8%
CCC12C=CCN3CCC4(c5cc(NC(=O)CN6CCN(C)CC6)c(OC)cc5N(C)C4C(O)(C(=O)OC)C1OC(C)=O)C32 (centres unmarked) ... 101%
CC[C@]12C=CCN3CC[C@@]4(c5ccc(OC)cc5N(C)[C@H]4[C@@](O)(C(=O)OC)[C@@H]1OC(=O)CCCN1CCN(C(=O)c4ccco4)CC1)[C@@H]32 ... 98.8%

Next item in the queue.
Enquiry: Determine from records and report activity at 10 µM for CCC12C=CCN3CCC4(c5cc(NC(=O)CN6CCN(C(=O)c7ccco7)CC6)c(OC)cc5N(C)C4C(O)(C(=O)OC)C1OC(C)=O)C32 (centres unmarked)
Return: 107%

###

- System: LOX IMVI
- assay: NCI60 one-dose screen (10 μM), Melanoma
- Assay type: cell-based, human
- condition parameters: Homo sapiens; 10 μM; LOX IMVI, Melanoma; read-out: Growth percent rate
Measured activity at 10 µM, listed per entry.
Please answer in the form of a number followed by its unit of measurement.

Enquiry: Determine from records and report activity at 10 µM for CC[C@]12C=CCN3CC[C@@]4(c5ccc(OC)cc5N(C)[C@H]4[C@@](O)(C(=O)OC)[C@@H]1OC(=O)CCCN1CCN(c4ccc(C(F)(F)F)cc4)CC1)[C@@H]32
Return: -97.2%
